molecular target: Man9-V3 glycopeptide; assay: biolayer interferometry, biotinylated Man9-V3 on streptavidin sensors, antibody in solution, global fit to the bivalent avidity model
Give true when the value for kon is at least 2000 M⁻¹ s⁻¹. Give false when it is less.

Example entries and their recorded answers appear below.
- BINDER: "DH270.3 (antibody, V domains shown) VH: QVQLVQSGAEMKNPGASVKVSCAASGYTFTDFYIHWVRLAPGQGLEWMGWMNPKTGRTNNAQNFQGRVIMTRDTSIGTAYMELRRLTSDDTAVYYCVTGGWISPYYDSSYYPNFDHWGQGTLVTVSS VL: QSALTQPASVSGSPGQSITISCTGTSYDVGKFDLVSWYQQHPGKAPKYMIYEVNKWPSGVSHRFSGSKSGNTASLTISGLQAEDEADYYCCSFGGSATVVCGGGTKVTVL"
  ASSIGNED_CLASS: "true"
- BINDER: "DH270.4 (antibody, V domains shown) VH: EVQLVQSGAEMKNPGASVKVSCAASGYGFTDFYIHWVRLAPGHGLQWMGWMNPKTGRTNNAQDFQGRVILTRDTSIGTAYMELRRLTSDDTAVYYCVTGGWISPYYDSSYYPNFDHWGQGTLITVSS VL: QSALTQPASVSGSPGQSITISCTGTSYDVAKFDLVSWFQQHPGKAPKYMIYEVNKWPSGVSHRFSGSKSGNTASLTISGLQAEDEADYYCCSFGGSATVVCGGGTKVTVL"
  ASSIGNED_CLASS: "false"
- BINDER: "DH270.2 (antibody, V domains shown) VH: QVQLVQSGAEMKKPGASVRVSCKASGYTFTDYYIHWVRQAPGQGPEWMGWINPSTGRTNSPQKFQGRVIMTRDTSISTAYMDLNRLTSDDTAMYYCTTGGWIGLYSDTSGYPNFDYWGQGTLVTVSS VL: QSALTQPASVSGSPGQSITISCTGTNYDVGSYNLVSWYQQHPGKVPKYIIYEVNKRPSGVSNRFSGSKSGNTASLTISGLQAEDEADYYCCSYAGSSIIFFGGGTKLTVI"
  ASSIGNED_CLASS: "false"
- BINDER: "DH270.5 (antibody, V domains shown) VH: QVQLVQSGAEVKNPGASVKVSCAPSGYTFTDFYIHWVRLAPGQGLEWLGWMNPKTGRTNQGQNFQGRVIMTRDTSIGTAYMELRSLTSDDTAVYYCVTGAWISDYYDSSYYPNFDHWGQGTLVTVSS VL: LPVLTQPASVSGSPGQSITISCTGTIYDVGKFDLVSWYQHHPGKAPKYLIYEVKKWPSGVSHRFSGSKSGNTASLTISGLQVEDEADYYCCSFGGSAAVVCGGGTKVTVL"
  ASSIGNED_CLASS: "true"

Here is the next item to consider.
kon >= 2000 M⁻¹ s⁻¹ for DH270.1 (antibody, V domains shown) VH: QVQLVQSGAEMKKPGASVKVSCKASGYTFTDYYIHWVRQAPGQGLEWMGWINPNTGRTNYAQKFQGRVIMTRDTSISTAYMELSRLTSDDTAVYYCATGGWIGLYYDSSGYPNFDYWGQGTLVTVSS VL: QSALTQPASVSGSPGQSITISCTGTSYDVGSYNLVSWYQQHPGKAPKYMIYEVNKRPSGVSNRFSGSKSGNTASLTISGLQAEDEADYYCCSYAGSSTVIFGGGTKLTVL ?
false

Values from patent US20240150445A1
